Listing of entries alongside the reported IC50.
- TARGET_SYSTEM: Chymotrypsinogen A (Bos taurus)
- TEST_SUMMARY: Inhibition of alpha-chymotrypsin in bovine pancreas using SPpNA as substrate pretreated with enzyme for 30 mins followed by substrate addition and measured for 12 mins in presence of Triton X-100 by spectrophotometric analysis
Note: unit µM is implicit; provide only the numeric part.

• C[C@@H]1O[C@@H](OC[C@H]2O[C@@H](Oc3c(-c4ccc(O)c(O)c4)oc4cc(O)cc(O)c4c3=O)[C@H](O)[C@@H](O)[C@@H]2O)[C@H](O)[C@H](O)[C@H]1O = 281

Now examine the next entry.
# input Can you look up IC50 on Chymotrypsinogen A (Bos taurus) for O=c1cc(-c2ccc(O)c(O)c2)oc2ccccc12 ?
# output 270

meta.source: ChEMBL document CHEMBL4304766
